This collection of values is drawn from patent US20210188980A1.

- SYSTEM NAME: T1, human PD-1 ECD/Fc fusion protein (human)
- T1 construct: also called huPD-1/Fc; HuPD-1 ECD/Fc
- T1 sequence (chain, as listed by the source limits assumed): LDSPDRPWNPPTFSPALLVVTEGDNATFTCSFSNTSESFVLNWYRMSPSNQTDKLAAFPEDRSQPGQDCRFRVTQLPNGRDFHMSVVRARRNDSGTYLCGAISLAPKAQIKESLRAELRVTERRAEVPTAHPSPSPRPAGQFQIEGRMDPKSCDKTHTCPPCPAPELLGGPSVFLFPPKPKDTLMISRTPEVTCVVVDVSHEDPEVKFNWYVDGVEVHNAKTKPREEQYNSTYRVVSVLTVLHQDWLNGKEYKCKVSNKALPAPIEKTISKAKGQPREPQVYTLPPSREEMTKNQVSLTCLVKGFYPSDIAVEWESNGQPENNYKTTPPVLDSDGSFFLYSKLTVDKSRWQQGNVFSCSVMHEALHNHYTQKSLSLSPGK
- METHOD NOTES: SPR Biacore, mAb captured, huPD-1/Fc analyte
ASSAY ENDPOINT: Kd (nM)
Please reply with the bare figure in nM and do not write the unit itself.

>>> value_observed("mAb709 (antibody, V domains shown, murine hybridoma anti-PD-1 mAb) VH: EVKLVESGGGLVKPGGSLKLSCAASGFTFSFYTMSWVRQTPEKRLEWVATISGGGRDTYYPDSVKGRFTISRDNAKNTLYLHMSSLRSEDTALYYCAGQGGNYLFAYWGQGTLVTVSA VL: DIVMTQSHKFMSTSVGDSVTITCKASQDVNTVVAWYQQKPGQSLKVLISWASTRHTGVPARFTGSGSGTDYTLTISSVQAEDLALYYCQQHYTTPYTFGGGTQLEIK")
0.939

Form: binder = mAb718 (antibody, V domains shown, murine hybridoma anti-PD-1 mAb) VH: QVQLQQSGAELVRPGASVTLSCKASGYTFTDYEMHWAKQTPVHGLEWIGVIEPESGGTVYNQKFKGKAKLTADKSSRTAYMELRSLTSEDSAVYYCTREGFNSDHYFDYWGQGTTLTVSS VL: DVLMTQTPLSLPVSLGDQASISCRSSQNIVHSNGNTYLEWYLQKPGQSPKLLIYKVFNRFSGVPDRFSGSGSGTDFTLKISRVEAEDLGVYYCFQGSHVPYTFGGGTKLEIK ; Kd = 4.84
